Where these numbers come from: patent US20170165339A1

target: HLA-A*02 (human); assay: UV peptide-exchange ELISA, yield grade
measured.property: peptide exchange yield

Worked examples follow.
[
  {
    "binder": "GLLPLLHRA [GLLPLLHRA (SEQ ID NO: 12)]",
    "peptide exchange yield": "≥ 75%"
  },
  {
    "binder": "HLFDAFVSV [HLFDAFVSV (SEQ ID NO: 233)]",
    "peptide exchange yield": "50 to 75%"
  },
  {
    "binder": "ILFHGVFYA [ILFHGVFYA (SEQ ID NO: 50)]",
    "peptide exchange yield": "50 to 75%"
  },
  {
    "binder": "YIKTELISV [YIKTELISV (SEQ ID NO: 33)]",
    "peptide exchange yield": "50 to 75%"
  },
  {
    "binder": "LLSERFINV [LLSERFINV (SEQ ID NO: 258)]",
    "peptide exchange yield": "≥ 75%"
  },
  {
    "binder": "VQLDSIEDLEV [VQLDSIEDLEV (SEQ ID NO: 32)]",
    "peptide exchange yield": "50 to 75%"
  },
  {
    "binder": "ALAPHLDDA [ALAPHLDDA (SEQ ID NO: 237)]",
    "peptide exchange yield": "50 to 75%"
  },
  {
    "binder": "ALHFSEDEI [ALHFSEDEI (SEQ ID NO: 146)]",
    "peptide exchange yield": "20 to 49%"
  },
  {
    "binder": "FLTAINYLL [FLTAINYLL (SEQ ID NO: 72)]",
    "peptide exchange yield": "50 to 75%"
  },
  {
    "binder": "GLAVPTPSV [GLAVPTPSV (SEQ ID NO: 134)]",
    "peptide exchange yield": "50 to 75%"
  }
]

Query: Param item = SLGEEQFSV [SLGEEQFSV (SEQ ID NO: 256)] ; retrieve measured peptide exchange yield.
Reply: 20 to 49%

Query: What does the data say about its peptide exchange yield? Entry: SLADTNSLAVV [SLADTNSLAVV (SEQ ID NO: 36)]
Reply: 50 to 75%

Query: Reported peptide exchange yield for FLFGGVLMTL [FLFGGVLMTL (SEQ ID NO: 136)] : what is it?
Reply: 20 to 49%

Query: Which peptide exchange yield is listed for TLLQRLTEV [TLLQRLTEV (SEQ ID NO: 67)] ?
Reply: 50 to 75%

Query: Which measured peptide exchange yield value corresponds to GVVDPVHGV [GVVDPVHGV (SEQ ID NO: 122)] ?
Reply: 20 to 49%

Query: What measured peptide exchange yield goes with KVMATIEKV [KVMATIEKV (SEQ ID NO: 124)] ?
Reply: 20 to 49%
